System: SF-539 CNS
Experiment: NCI-60 one-dose screen, 48 h
Settings: 10 µM unless noted
About 83,000 compounds went through this panel and 20% of them were active in at least one assay; those are over-represented in the sample as a whole. Calls of active or inactive are those of the source. Rule for the calls: active = growth percent below 10; inactive = the rest.
Give one outcome, nothing more. List: active, inactive

Known results for molecules:
O=C(N/N=C/c1ccsc1)c1[nH]c2ccc(Br)cc2c1-c1ccccc1 : active
CC(C)(C)c1cc(-c2cc(-c3ccccc3)[nH]c(=O)c2C#N)cc(C(C)(C)C)c1 : inactive

Task: Tell me the recorded outcome of this test for CN1C(=O)C2(C(C#N)=C(c3ccc(Cl)cc3)Nc3c2c(-c2ccccc2)nn3-c2ccccc2)c2ccccc21 (stereo not drawn) .
Output: active

###

System: MCF7 breast
Experiment: NCI-60 one-dose screen, 48 h (100 = growth as untreated, 0 = no growth, -100 = all killed)
Details: 10 µM unless noted
This is part of a sample that, as a whole, favours compounds with a hit. Of some 83,000 tested, about 20% had one in any assay.
recorded.endpoint: growth (%)
Numeric answer only, unit % assumed.

Below: 3 molecules and their reported growth.
COc1ccc2[nH]c(O)c(N=Nc3nc(-c4ccc(C#N)cc4)cs3)c2c1 : 69.8
Cc1oc(-c2ccccc2)nc1CN[C@@H]1C[C@@H]2C[C@H]([C@H]1C)C2(C)C : -4.81
COc1ccc(CCC2NCCc3c(Br)c4c(c(OC)c32)OCO4)cc1 (centres undefined) : 3.82

Kindly review the next molecule as well.
Task: Query growth on MCF7 breast for COc1ccc(-c2nc3ccccc3n2CC(=O)N=Nc2c(O)[nH]c3ccc(Br)cc23)cc1
Output: 43.7

###

Test system: TK-10 renal
Assay: NCI-60 one-dose screen, 48 h (100 = growth as untreated, 0 = no growth, -100 = all killed)
Conditions: 10 µM unless noted
The panel holds about 83,000 compounds, 20% with a hit somewhere; the sample as a whole holds those more often.
recorded.endpoint: growth (%)
Numeric answer only, unit % assumed.

Cc1ccccc1Nc1nnc(-c2c[nH]c3ccccc23)o1 : 60.2

Task: Requested read-out: growth. Entry: Nc1cc(-c2c[nH]c3ccc(F)cc23)nc2cc(-c3c[nH]c4ccccc34)nn12
Output: 17.3

Task: Proceed to CC[C@]12C=CCN3CC[C@@]4(c5ccc(OC)cc5N(C)[C@H]4[C@@](O)(C(=O)OC)[C@@H]1OC(=O)CCC[P+](c1ccc(OC)cc1)(c1ccc(OC)cc1)c1ccc(OC)cc1)[C@@H]32
Output: -90.7

Task: Proceed to O=C(CSc1nnc(-c2ccc(-c3nc4ccc(Cl)cc4[nH]3)cc2)o1)Nc1ccccc1
Output: 114

Task: Proceed to COc1ccc(/C=C/C(=O)c2ccc(S(=O)(=O)NCCNc3nc(N(C)C)nc(N4CCOCC4)n3)cc2)cc1
Output: 114

Task: Proceed to CC(C)(C)c1cc(-c2cc(-c3ccccc3)[nH]c(=O)c2C#N)cc(C(C)(C)C)c1
Output: 27.6

Task: Proceed to COc1ccc(/C=C/c2nc3ccccc3c(=O)n2CC(=O)Nc2ccccc2)cc1
Output: -9.9

Task: Proceed to O=C(Nc1nc2ccccc2s1)Nc1ccccc1Cl
Output: 84.7

Task: Proceed to COc1ccc(N=Nc2c(N)nn3c(-c4ccc([N+](=O)[O-])cc4)ccnc23)cc1
Output: 113

Task: Proceed to O=C(Nc1ccc(Cl)c(C(F)(F)F)c1)N1CCN(c2cc(-c3cn(-c4ccccc4)nc3-c3cccc(O)c3)ccn2)CC1
Output: 8.9

Task: Proceed to Cc1ccc(N=Nc2c(N)nn3c(-c4cc5cc(Br)ccc5oc4=O)ccnc23)cc1
Output: 81.9

Task: Proceed to Cc1[nH]nc2ccc3nc(-c4cnn(CCO)c4)c4c(c3c12)CCCC4
Output: 21.1

Task: Proceed to OCCn1cc(-c2nc3ccc4[nH]ncc4c3c3c2CCCC3)cn1
Output: 16.5

Task: Proceed to Clc1ccc(CNc2nc(SCCN3CCOCC3)nc3c2cnn3CC(Cl)c2ccc(Br)cc2)cc1 (configuration not stated)
Output: 68.7

Task: Proceed to CCCSc1nnc(-c2c(C)nc3sccn23)o1
Output: 113

Task: Proceed to COc1ccc(/C=C/c2nc3ccccc3n3c(-c4cccc([N+](=O)[O-])c4)nnc23)cc1
Output: -47.3

Task: Proceed to CC1=NN(C2=NC(=O)C(CC(=O)Nc3ccccc3C(F)(F)F)S2)C(c2ccc(N(C)C)cc2)C1 (configuration not stated)
Output: 71.5

Task: Proceed to COc1ccc(C(=O)c2c(N)c(C#N)cn2-c2ccc([N+](=O)[O-])cc2)cc1
Output: 117

Task: Proceed to COc1cccc(C(N)=Nc2ccc(OCCCCCCCCn3cncn3)cc2)c1
Output: 57

Task: Proceed to Cn1ncc2c(N)nc(Oc3ccccc3-c3ccccc3)nc21
Output: 65.1

Task: Proceed to C=CCSc1nnc(-c2ccc(-c3nc4ccccc4[nH]3)cc2)o1
Output: 87.7

Task: Proceed to COc1cc(CNC(=O)[C@]23CCC(C)(C)CC2C2=CCC4[C@@]5(C)CCC(OC(C)=O)C(C)(C)C5CC[C@@]4(C)[C@]2(C)CC3)ccc1OCc1cn(-c2ccc(Cl)cc2Cl)nn1 (some centres not stated)
Output: 134

Task: Proceed to Cc1ccc(C2CC(c3ccc(NC(=S)Nc4ccccc4)cc3)=NN2c2ccc(S(N)(=O)=O)cc2)cc1 (configuration not stated)
Output: 21.6

meta.source: PubChem BioAssay (NCI)
